procedure.summary: Homolysis of the NO–C bond measured by EPR
condition.summary: tert-butylbenzene, t1/2 at 37 °C
Procedure: Homolysis rate constants kd’ were measured by EPR and estimated using Equation (1) as reported many times in the literature. Further, Ea and kd were estimated using Equation (2). (1) ln([nitroxide]∞−[nitroxide]t/[nitroxide]∞)=−kd·t (2) Ea=−RT ln([…] kd′ )
outcome.measure: half-life (days)
Express your answer in days, writing the number without its unit.

// half-life value for CC(ON1C(C)(C)CC(O)CC1(C)C)c1cc(-c2ccccn2)nc(-c2ccccn2)c1 (racemic) [(R/S)-8F] : 913

----------
procedure.summary: Homolysis of the NO–C bond measured by EPR
condition.summary: t-BuPh
Item-by-item account of half-lifetime t1/2 at 37 °C
State just the number; it will be interpreted in days.

half-lifetime t1/2 at 37 °C recorded for this molecule, CCOP(=O)(OCC)C(N(OC(C)c1cc(-c2ccccn2)nc(-c2ccccn2)c1)C(C)(C)CO)C(C)(C)C (stereo not drawn) [(RR/SS)-2F] , is 3.5

Summary for this molecule, CCOP(=O)(OCC)C(N(OC(C)c1cc(-c2ccccn2)nc(-c2ccccn2)c1)C(C)(C)CO[Si](C)(C)C(C)(C)C)C(C)(C)C (stereo not drawn) [(RR/SS)-6F] : half-lifetime t1/2 at 37 °C is 24

Consider CCOP(=O)(OCC)C(N(OC(C)c1cc(-c2ccccn2)nc(-c2ccccn2)c1)C(C)(C)CO)C(C)(C)C (stereo not drawn) [(RS/SR)-2F] . Its measured half-lifetime t1/2 at 37 °C is 4.8

The recorded half-lifetime t1/2 at 37 °C for entry CCOP(=O)(OCC)C(N(OC(C)c1cc(-c2ccccn2)nc(-c2ccccn2)c1)C(C)(C)CO[Si](C)(C)C(C)(C)C)C(C)(C)C (stereo not drawn) [(RS/SR)-6F] equals 10

The molecule listed as CCOP(=O)(OCC)C(N(OC(C)c1cc(-c2ccccc2)cc(-c2ccccc2)c1)C(C)(C)CO)C(C)(C)C (stereo not drawn) [(RS/SR)-2G] has a reported half-lifetime t1/2 at 37 °C of 7.5

----------
procedure.summary: Cytotoxicity assay (MTT)
condition.summary: African green monkey, Cytotoxicity Mean IC50, Vero cell lines, 48 h, MTT
outcome.measure: IC50 at 48 h (µM)
Enter your answer as a number in µM; do not include the unit.

CCOP(=O)(OCC)[C@@H](N(O[C@@H](C)c1ccncc1)C(C)(C)C)C(C)(C)C (relative stereo) [(RS/SR)-1a]    28
CCOP(=O)(OCC)C(N(OC(C)c1cc(-c2ccccn2)nc(-c2ccccn2)c1)C(C)(C)C=O)C(C)(C)C (centres unmarked) [(RS/SR)-7F]    0.9
CCOP(=O)(OCC)C(N(OC(C)c1cc(-c2ccccn2)nc(-c2ccccn2)c1)C(C)(C)C(=O)O)C(C)(C)C (centres unmarked) [(RS/SR)-4F]    15
CCOP(=O)(OCC)[C@@H](N(O[C@H](C)c1ccncc1)C(C)(C)C)C(C)(C)C (relative stereo) [(RR/SS)-1a]    17

Switching to the query record.
// IC50 at 48 h value for CCOP(=O)(OCC)C(N(OC(C)c1cc(-c2ccccn2)nc(-c2ccccn2)c1)C(C)(C)CO)C(C)(C)C (centres unmarked) [(RS/SR)-2F] : 0.8

----------
Reported values of pIC50 for individual entries
Test system: P. falciparum F32-TEM (artemisinin-sensitive strain)
procedure.summary: Standard chemosensitivity assay (SYBR Green I), F32-TEM
Assay type: cell-based, Plasmodium falciparum
condition.summary: Plasmodium falciparum, F32, 48 h, read-out: P. falciparum Strains Mean IC50, F32-TEM, 48 h; ^1 n = 1, ^2 n = 2
Remember, pIC50 is on a log scale: it is -log10 of the molar concentration.

Known pIC50 results, listed for orientation:
CCN(CC)CCCC(C)Nc1ccnc2cc(Cl)ccc12 (stereo not shown) [Chloroquine, chloroquine, reference compound]    7.22
CCc1cc(-c2ccccn2)nc(-c2ccccn2)c1    6.62
CCOP(=O)(OCC)C(N(OC(C)c1cc(-c2ccccn2)nc(-c2ccccn2)c1)C(C)(C)C=O)C(C)(C)C (stereo not shown) [(RS/SR)-7F]    5.89

Reported pIC50 ( CCOP(=O)(OCC)[C@@H](N(O[C@@H](C)c1ccncc1)C(C)(C)C)C(C)(C)C (relative stereo) [(RS/SR)-1a] ) = 5.12

----------
procedure.summary: Cytotoxicity assay (MTT)
condition.summary: African green monkey
outcome.measure: IC50 at 48 h (µM)
Answer with a number only, understood to be in µM.

Reported IC50 at 48 h ( CCN(CC)CCCC(C)Nc1ccnc2cc(Cl)ccc12 (stereo not shown) [Chloroquine, chloroquine, reference compound] ) = 190

----------
System: Adult S. mansoni
procedure.summary: In vitro antischistosomal activity on adult worms
Assay type: cell-based, Schistosoma mansoni
condition.summary: 100 µg/mL, observation up to 8 h (Table S1)
Threshold check on Mean (±SD) survival time – Adult S. mansoni: at or above 2 h gives Satisfied, strictly below gives Not satisfied.

# example entries with known answers
CCOP(=O)(OCC)C(N(OC(C)c1ccccc1)C(C)(C)C(=O)OC)C(C)(C)C (centres unmarked) [(RS/SR)-5z]    Satisfied
CCOP(=O)(OCC)C(N(OC(COC)c1ccccc1)C(C)(C)C)C(C)(C)C (centres unmarked) [(RS/SR)-1D]    Satisfied
CCOP(=O)(OCC)C(N(OC(C)c1ncc[nH]1)C(C)(C)C)C(C)(C)C (centres unmarked) [(RR/SS)-1k]    Not satisfied
CCOP(=O)(OCC)C(N(OC(C)c1c[nH]cn1)C(C)(C)C)C(C)(C)C (centres unmarked) [(RS/SR)-1p]    Not satisfied
CCOP(=O)(OCC)C(N(OC(C)c1ccc(C(=O)OC)cc1)C(C)(C)C)C(C)(C)C (centres unmarked) [(RR/SS)-1x]    Satisfied

Dear colleague, could you confirm whether CCOP(=O)(OCC)C(N(OC(C)n1cc[n+](C)c1)C(C)(C)C)C(C)(C)C.Cc1ccc(S(=O)(=O)[O-])cc1 (centres unmarked) [(RS/SR)-1n] has Mean (±SD) survival time – Adult S. mansoni at or above 2 h?
Satisfied

Could you tell me if the measured Mean (±SD) survival time – Adult S. mansoni of CCOP(=O)(OCC)C(N(OC(C)c1ncc[nH]1)C(C)(C)C)C(C)(C)C (centres unmarked) [(RS/SR)-1k] reaches 2 h or more?
Satisfied

Determine whether this molecule has Mean (±SD) survival time – Adult S. mansoni no lower than 2 h: CCc1cc(-c2ccccn2)nc(-c2ccccn2)c1
Satisfied

Dear colleague, could you confirm whether CCOP(=O)(OCC)C(N(OC(CN)c1ccccn1)C(C)(C)C)C(C)(C)C (centres unmarked) [(RS/SR)-1g] has Mean (±SD) survival time – Adult S. mansoni at or above 2 h?
Satisfied

# check: Mean (±SD) survival time – Adult S. mansoni of CCOP(=O)(OCC)C(N(OC(CO)c1ccccn1)C(C)(C)C)C(C)(C)C (centres unmarked) [(RS/SR)-1i] is greater than or equal to 2 h
Satisfied

Hi, just wondering whether CCOP(=O)(OCC)C(N(OC(CNC(=O)C(F)(F)F)c1ccccn1)C(C)(C)C)C(C)(C)C (centres unmarked) [(RS/SR)-1h] shows Mean (±SD) survival time – Adult S. mansoni of 2 h or higher.
Satisfied

Hi, just wondering whether CCOP(=O)(OCC)C(N(OC(C)c1ccc(C(=O)O)cc1)C(C)(C)C)C(C)(C)C (centres unmarked) [(RR/SS)-1y] shows Mean (±SD) survival time – Adult S. mansoni of 2 h or higher.
Satisfied

Could you tell me if the measured Mean (±SD) survival time – Adult S. mansoni of CC(ON(C(C)(C)C)C(C)(C)C)c1ccncc1 (centres unmarked) [14a] reaches 2 h or more?
Satisfied

Confirm if Mean (±SD) survival time – Adult S. mansoni reported for the molecule CCOP(=O)(OCC)[C@@H](N(O[C@@H](COC(C)=O)c1ccccn1)C(C)(C)C)C(C)(C)C (relative stereo) [(RR/SS)-1j] is 2 h or above.
Satisfied

Determine whether this molecule has Mean (±SD) survival time – Adult S. mansoni no lower than 2 h: CCOP(=O)(OCC)[C@@H](N(O[C@H](C)n1cc[n+](C)c1)C(C)(C)C)C(C)(C)C.Cc1ccc(S(=O)(=O)[O-])cc1 (relative stereo) [(RR/SS)-1n]
Satisfied

Would you say CCOP(=O)(OCC)C(N(OC(C)c1ccnc2c1ccc1cccnc12)C(C)(C)C)C(C)(C)C (centres unmarked) shows Mean (±SD) survival time – Adult S. mansoni at minimum 2 h?
Not satisfied

Say whether CCOP(=O)(OCC)[C@@H](N(O[C@H](C)c1ccncc1)C(C)(C)C)C(C)(C)C (relative stereo) [(RR/SS)-1a] shows Mean (±SD) survival time – Adult S. mansoni of 2 h or more.
Satisfied

Form field: Mean (±SD) survival time – Adult S. mansoni at least 2 h? Entry: CCOP(=O)(OCC)C(N(OC(C)n1ccnc1)C(C)(C)C)C(C)(C)C (centres unmarked) [(RS/SR)-1o]
Not satisfied

Decide: Mean (±SD) survival time – Adult S. mansoni of O=C(C1CCCCC1)N1CC(=O)N2CCc3ccccc3C2C1 (centres unmarked) [Praziquantel, praziquantel, reference compound] >= 2 h?
Not satisfied

Does Mean (±SD) survival time – Adult S. mansoni meet or surpass 2 h for CCOP(=O)(OCC)C(N(OC(C)c1c[nH]cn1)C(C)(C)C)C(C)(C)C (centres unmarked) [(RR/SS)-1p] ?
Not satisfied

Quick check: does CCOP(=O)(OCC)C(N(OC(C)c1cn(C)cn1)C(C)(C)C)C(C)(C)C (centres unmarked) [(RR/SS)-1q] have Mean (±SD) survival time – Adult S. mansoni greater than or equal to 2 h?
Satisfied

Does the molecule CCOP(=O)(OCC)C(N(OC(C)n1ccnc1)C(C)(C)C)C(C)(C)C (centres unmarked) [(RR/SS)-1o] have recorded Mean (±SD) survival time – Adult S. mansoni that is 2 h or more?
Satisfied

Assess whether reported Mean (±SD) survival time – Adult S. mansoni for CCOP(=O)(OCC)C(N(OC(CN)c1cc[n+]([O-])cc1)C(C)(C)C)C(C)(C)C (centres unmarked) [(RS/SR)-1e] sits at 2 h or higher.
Satisfied

meta.source: paper PMC7503767
